- System: HSkMC
- test protocol: cytotoxicity call (relative viability < 0.9)
- stated conditions: 10 µM
Out of some 39,000 compounds screened, about 1,500 (3.8%) were called active. Shown is part of a subset that was picked to be rich in actives.
Please answer using one outcome listed in t = active, f = inactive

Record request — test call for CCCCCCCCCc1ccc(O)cc1
t

Record request — test call for CC1OC(OC2C(O)C(O)C(O)C(O)C2O)C(N)CC1NC(=N)C(=O)O.Cl (stereo unspecified)
f

Record request — test call for C[C@]12CC[C@]3(C)OC[C@](CO)(CO1)N23
f

Record request — test call for NC(=O)c1ccc(N)nc1
f

Record request — test call for COc1ccc(OC(=O)N(C)C[C@H]2OCc3ccccc3-c3c(n(C)c4ccccc34)C(=O)N([C@@H](C)CO)C[C@H]2C)cc1
f

Record request — test call for C[C@@H]1CN([C@H](C)CO)C(=O)CCCn2nncc2CO[C@@H]1CN(C)C(=O)Oc1cccc2ccccc12
f

Record request — test call for CC1=C2CC3C(CC=C4CC(O)CCC43C)C2CCC12OC1CC(C)CNC1C2C (stereo unspecified)
f

Record request — test call for N[C@H]1C[C@H]1c1ccccc1
f

Record request — test call for Cc1ncc(CNC(=O)N(CCCl)[NH2+][O-])c(N)n1
f

Record request — test call for NCCc1ccc(O)cc1
f

Record request — test call for C=C(C)[C@H]1CN[C@H](C(=O)O)[C@H]1CC(=O)O
f

* * *

- Tested on: HSkMC
- test protocol: cytotoxicity call (relative viability < 0.9)
- stated conditions: 10 µM
Among all 39,000 compounds or so, about 1,500 (3.8%) were called active. The entries come from a sample that favours actives as a whole.
Please answer using one outcome listed in 1.0 for active, 0.0 for inactive

Record request — test call for CN1CCOCC12CCN(c1ncccn1)CC2
0.0

Record request — test call for CNCc1cccnc1
0.0

Record request — test call for CC(C)(O)/C=C/C(=O)[C@](C)(O)[C@H]1[C@H](O)C[C@@]2(C)[C@H]3CC=C4[C@@H](CC(=O)C(=O)C4(C)C)[C@]3(C)C(=O)C[C@]12C
1.0

Record request — test call for CO[C@H]1[C@H]2CC[C@@H]1NC2
0.0

Record request — test call for CC(=O)OC(C)(C)/C=C/C(=O)C(C)(O)[C@H]1[C@H](O)C[C@@]2(C)[C@H]3CC=C4[C@@H](C[C@H](O)C(=O)C4(C)C)[C@]3(C)C(=O)C[C@]12C (stereo partly drawn)
0.0

Record request — test call for N#C[C@H](O[C@@H]1O[C@H](CO[C@@H]2O[C@H](CO)[C@@H](O)[C@H](O)[C@H]2O)[C@@H](O)[C@H](O)[C@H]1O)c1ccccc1
0.0

Record request — test call for Cl.Cn1c(CCCC(=O)O)nc2cc(N(CCCl)CCCl)ccc21
0.0

Record request — test call for C=C(C)[C@@H]1[C@H]2OC(=O)[C@H]1[C@]1(O)C[C@H]3O[C@]34C(=O)O[C@H]2[C@]14C
0.0

* * *

- System: HSkMC
- test protocol: cytotoxicity call (relative viability < 0.9)
- stated conditions: 10 µM
Screen size: about 39,000 compounds; about 1,500 (3.8%) were called active. Shown is part of a subset that was picked to be rich in actives.
Please answer using one outcome listed in active, inactive

Record request — test call for CC[C@@H](C(=O)[C@@H](C)[C@@H](O)[C@H](C)[C@@H]1O[C@@H]([C@@H](CC)C(=O)O)CC[C@@H]1C)[C@H]1O[C@]2(C=C[C@@H](O)[C@]3(CC[C@@](C)([C@H]4CC[C@](O)(CC)[C@H](C)O4)O3)O2)[C@H](C)C[C@@H]1C
active

Record request — test call for CCC1(c2ccccc2)C(=O)NC(=O)NC1=O
inactive

Record request — test call for CC(=O)O[C@H]1C(=O)[C@]2(C)[C@@H](O)C[C@H]3OC[C@@]3(OC(C)=O)[C@@H]2[C@H](OC(=O)c2ccccc2)[C@]2(O)C[C@H](O)C(C)=C1C2(C)C
inactive

Record request — test call for COc1cccc(-c2ccc3c(CCN)c[nH]c3c2)c1
inactive

Record request — test call for C[C@@H]1CC[C@@]2(OC1)O[C@H]1[C@@H](O)[C@H]3[C@H]4CC[C@H]5C[C@H](O[C@@H]6O[C@H](CO)[C@H](O[C@@H]7O[C@H](CO)[C@@H](O)[C@H](O[C@@H]8OC[C@@H](O)[C@H](O)[C@H]8O)[C@H]7O[C@@H]7O[C@H](CO)[C@H](O)[C@H](O[C@@H]8O[C@H](CO)[C@@H](O)[C@H](O)[C@H]8O)[C@H]7O)[C@H](O)[C@H]6O)[C@H](O)C[C@]5(C)[C@@H]4CC[C@]3(C)[C@H]1[C@@H]2C
inactive

Record request — test call for CC1=NCCc2c1[nH]c1cc(O)ccc21.Cl.O.O
inactive

Record request — test call for CC1=C2C(=COC(C)C2C)C(O)=C(C(=O)O)C1=O (configuration not stated)
inactive

Record request — test call for CCCCOC(=O)C1=CC(=O)CC(C)(C)O1
inactive

Record request — test call for CCC(C)C1OC2(C=CC1C)CC1CC(CC=C(C)C(OC3CC(OC)C(OC4CC(OC)C(O)C(C)O4)C(C)O3)C(C)C=CC=C3COC4C(O)C(C)=CC(C(=O)O1)C34O)O2 (configuration not stated)
inactive

Record request — test call for CCn1nc(-c2cccnc2)nc2c(=O)n(C)c(=O)nc1-2
active

Record request — test call for O=C(O)Cc1cccnc1C(=O)O
inactive

Record request — test call for CC1CCC2(NC1)OC1CC3C4CC=C5CC(O)CCC5(C)C4CCC3(C)C1C2C (configuration not stated)
inactive

Record request — test call for CC(=O)OC1C2CCC3C(C)(O)C4CC(O)C(C)(C)C4(O)C(O)CC13CC2(C)O (configuration not stated)
inactive

Record request — test call for COC1C(O)C(C)OC(OC2CCC3(C=O)C(CCC4C3CCC3(C)C(C5=CC(=O)OC5)CCC43O)C2)C1O (configuration not stated)
active

Record request — test call for CC1OC(OC2CCC3(C=O)C4CCC5(C)C(C6=CC(=O)OC6)CCC5(O)C4CCC3(O)C2)C(O)C(O)C1O (configuration not stated)
active

Record request — test call for C[C@]12CC[C@H](Cl)C[C@@H]1CC[C@@H]1[C@@H]2CC[C@]2(C)C(=O)CC[C@@H]12
inactive

Record request — test call for CN(C)C(=O)[C@@]1(Cc2ccccc2CN=[N+]=[N-])N=C(c2ccc(OCCCO)cc2)O[C@H]1c1ccccc1N=[N+]=[N-]
inactive

Record request — test call for CO[C@H]1C[C@H](O[C@H]2CC[C@]3(C=O)[C@H]4CC[C@]5(C)[C@@H](C6=CC(=O)OC6)CC[C@]5(O)[C@@H]4CC[C@]3(O)C2)O[C@H](C)[C@H]1O
active

Record request — test call for CN(C)c1ccc(CCN)cc1
inactive

Record request — test call for CCCCC(=O)N1CC[C@H]2CNC[C@H]21
inactive

Record request — test call for CC[n+]1c(-c2ccccc2)c2cc(N)ccc2c2ccc(N)cc21.[Br-]
inactive

Record request — test call for O=c1cccc2n1C[C@H]1CNC[C@H]2C1
inactive

Record request — test call for Cc1scc(CCN)c1C
inactive

Record request — test call for CC1OC(OC2CC(O)C3(CO)C4C(O)CC5(C)C(C6=CC(=O)OC6)CCC5(O)C4CCC3(O)C2)C(O)C(O)C1O.O.O.O.O.O.O.O.O (configuration not stated)
active

Record request — test call for COc1cccc2c1C(=O)c1c(O)c3c(c(O)c1C2=O)C[C@@](O)(C(=O)CO)C[C@@H]3O[C@H]1C[C@H](N2CCO[C@H](OC)C2)[C@H](O)[C@H](C)O1
active

Record request — test call for C[CH2][Hg][S]c1ccccc1C(=O)[O-].[Na+]
active

Record request — test call for Cc1ccc(OC(=O)N(C)C[C@H]2OCc3ccccc3-c3c(n(C)c4ccccc34)C(=O)N([C@@H](C)CO)C[C@@H]2C)cc1
inactive

Record request — test call for COC1C(O)C(C)OC(OC2CCC3(C)C4CCC5(C)C(C6=CC(=O)OC6)CCC5(O)C4CCC3(O)C2)C1O (configuration not stated)
inactive

Record request — test call for CCC(C(=O)[O-])C1CCC(C)C(C(C)C(O)C(C)C(=O)C(CC)C2OC3(C=CC(O)C4(CCC(C)(C5CCC(O)(CC)C(C)O5)O4)O3)C(C)CC2C)O1.[Na+] (configuration not stated)
inactive

Record request — test call for C1COC2(CCNCC2)OC1
inactive

Record request — test call for CCCCOC(=O)c1ccccc1C(=O)OCCCC
inactive

Record request — test call for CC(C)N(C)C[C@H]1CO[C@]2(CNCCOC2)C1
inactive

* * *

- Tested on: HSkMC (human skeletal muscle cells)
- test protocol: cytotoxicity call (relative viability < 0.9)
- stated conditions: 10 µM
Out of some 39,000 compounds screened, about 1,500 (3.8%) were called active. The full list was thinned out, with actives kept by preference.
Please answer using one outcome listed in active, inactive

Record request — test call for C[C@@]12C(=O)OC(=O)[C@]1(C)[C@H]1CC[C@@H]2O1
active

Record request — test call for Cc1ncc(CNC(=O)N(CCCl)N=O)c(N)n1.Cl
inactive

Record request — test call for C=C(C)[C@H]1O[C@H]2CC[C@@]3(C)[C@@](O)(CC[C@H]4[C@@H]5OC(C)(C)[C@H]6C[C@@H]7C(=C)Cc8c(Cl)cc9[nH]c(c5c9c8[C@@]76O)[C@@]43C)[C@]23O[C@@H]3[C@H]1O
inactive

Record request — test call for CC12C(=O)OC(=O)C1(C)C1CCC2O1 (stereo not given)
inactive

Record request — test call for NC(=O)CN1CC[C@@H](NC(=O)[C@@H]2CCCN2)C1=O
inactive
